All figures here come from the kinase profiling compilation of Christmann-Franck et al. (2016).

Recorded residual activity values for a group of compounds are listed next.
target: EEF2K (human) (UniProt O00418); experiment: radiometric filter-binding kinase assay; conditions: compound 0.1 µM
Sequence (O00418 whole entry, looked up): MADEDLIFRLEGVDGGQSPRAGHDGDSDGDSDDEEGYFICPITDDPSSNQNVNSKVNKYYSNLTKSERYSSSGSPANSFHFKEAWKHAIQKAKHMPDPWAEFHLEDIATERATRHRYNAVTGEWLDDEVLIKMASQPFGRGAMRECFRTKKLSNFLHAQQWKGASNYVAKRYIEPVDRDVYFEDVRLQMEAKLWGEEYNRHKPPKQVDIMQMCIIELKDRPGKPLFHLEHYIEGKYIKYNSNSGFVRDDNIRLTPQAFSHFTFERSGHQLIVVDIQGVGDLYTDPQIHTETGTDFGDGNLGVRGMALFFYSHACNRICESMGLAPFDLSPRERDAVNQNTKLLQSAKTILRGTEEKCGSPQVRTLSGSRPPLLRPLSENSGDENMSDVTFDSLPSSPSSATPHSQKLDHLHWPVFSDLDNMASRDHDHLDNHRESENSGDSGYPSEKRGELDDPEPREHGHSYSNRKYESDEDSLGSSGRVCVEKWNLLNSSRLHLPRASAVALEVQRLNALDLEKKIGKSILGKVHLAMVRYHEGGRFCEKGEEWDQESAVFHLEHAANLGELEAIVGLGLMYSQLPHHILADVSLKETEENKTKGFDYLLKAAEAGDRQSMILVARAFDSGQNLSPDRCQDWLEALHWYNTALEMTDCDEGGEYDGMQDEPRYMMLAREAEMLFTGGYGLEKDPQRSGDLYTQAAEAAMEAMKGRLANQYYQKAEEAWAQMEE
Quick reminder: number only, in %, skip the unit.

These solved cases illustrate the format of a correct answer.
[[record]]
smiles_representation = "NC(=O)c1cc2c(-c3cccc(-c4ccccc4)c3)cnc(N)c2s1"
measurement_units = "%"
endpoint_value = 124

[[record]]
smiles_representation = "C/C(=C1/C(=O)Nc2ccc(NC(N)=O)cc21)c1ccc[nH]1"
measurement_units = "%"
endpoint_value = 106

[[record]]
smiles_representation = "O=C(Nc1ccccc1-c1cn2c(CN3CCNCC3)csc2n1)c1cnc2ccccc2n1"
measurement_units = "%"
endpoint_value = 102

[[record]]
smiles_representation = "Cc1cc(NC(=O)c2cccc(NC(=O)/C=C/CN(C)C)c2)ccc1Nc1nccc(-c2cccnc2)n1"
measurement_units = "%"
endpoint_value = 98


Now for a further compound.
Reported residual activity for `Cc1ccc(-c2ccc3c(ccc4sc5c(c43)NC[C@@H](C)NC5=O)n2)cn1` : what is it?
106

* * *

Recorded residual activity values for a group of compounds are listed next.
system: PRKAA1 or PRKAA2 (rat); assay: radiometric filter-binding kinase assay; details: compound 100.0 µM; accession and sequence are those of the human protein
Quick reminder: number only, in %, skip the unit.

These solved cases illustrate the format of a correct answer.
[[record]]
smiles_representation = "N#Cc1c(O)c2c(-c3ccc(-c4ccccc4O)cc3)csc2[nH]c1=O"
readout_type = "residual activity"
endpoint_value = 62

[[record]]
smiles_representation = "Cc1cc(N=Nc2cc(S(=O)(=O)O)c(C)cc2C)c(N)cc1O"
readout_type = "residual activity"
endpoint_value = 71

[[record]]
smiles_representation = "Cc1ccc2c(c1)C(=O)[C@@]1(O)CCN(c3ccccc3)C1=N2"
readout_type = "residual activity"
endpoint_value = 60


Now for a further compound.
Reported residual activity for `COC(=O)/C=C/C(=O)OC` : what is it?
104

* * *

target: MAPK13 (human); assay: radiometric filter-binding kinase assay; conditions: compound 0.1 µM
Readout Type: residual activity
Please answer using a numeric value trailed by its unit.

These solved cases illustrate the format of a correct answer.
[[record]]
compound = "O=C(N[C@@H](COc1ccc2[nH]c(=O)[nH]c2c1)c1ccccc1)c1cccn(Cc2ccc(F)c(F)c2)c1=O"
subject_of_test = "MAPK13 (human)"
endpoint_value = "91%"

[[record]]
compound = "Cc1cc(NC(=O)c2cccc(NC(=O)/C=C/CN(C)C)c2)ccc1Nc1nccc(-c2cccnc2)n1"
subject_of_test = "MAPK13 (human)"
endpoint_value = "96%"

[[record]]
compound = "c1ccc2c(-c3cnn4cc(-c5ccc(N6CCNCC6)cc5)cnc34)ccnc2c1"
subject_of_test = "MAPK13 (human)"
endpoint_value = "89%"

[[record]]
compound = "O=C(O)c1ccc(-c2c[nH]c3ncc(-c4ccccc4)cc23)cc1C1CCCC1"
subject_of_test = "MAPK13 (human)"
endpoint_value = "118%"

[[record]]
compound = "CCCCCc1ccc(/C=C/[C@H](O)[C@@H](CO)NC)cc1"
subject_of_test = "MAPK13 (human)"
endpoint_value = "90%"

[[record]]
compound = "NC1(c2ccc(-c3nc4ccn5c(=O)[nH]nc5c4cc3-c3ccccc3)cc2)CCC1"
subject_of_test = "MAPK13 (human)"
endpoint_value = "100%"


Reported residual activity for `CN(C)C/C=C/C(=O)Nc1cccc(C(=O)Nc2ccc(Nc3nccc(-c4cccnc4)n3)cc2)c1` : what is it?
106%

Reported residual activity for COc1cc(O)c2c(c1)[C@H]1OC1C[C@H](O)[C@H](O)C(=O)/C=C\C[C@H](C)OC2=O (some centres undefined) : what is it?
100%

Reported residual activity for CNC(=O)C1[C@H]2O[C@@](C)([C@@H]1N)n1c3ccccc3c3c4c(c5c6ccccc6n2c5c31)C(=O)NC4 (some centres undefined) : what is it?
97%

Reported residual activity for `COc1cc(O)c2c(c1)/C=C/C[C@H](O)[C@H](O)C(=O)/C=C\C[C@H](C)OC2=O` : what is it?
99%

Reported residual activity for `CCc1cncnc1N1CCN(Cc2nc3cc(C(F)(F)F)ccc3[nH]2)CC1` : what is it?
89%
